Hey, just so you know, these numbers are from ChEMBL document CHEMBL3297733.

target: Tyrosine-protein kinase ABL1 (Homo sapiens); test: Inhibition of Bcr-ABL (unknown origin)
Sequence (P00519 whole entry, looked up): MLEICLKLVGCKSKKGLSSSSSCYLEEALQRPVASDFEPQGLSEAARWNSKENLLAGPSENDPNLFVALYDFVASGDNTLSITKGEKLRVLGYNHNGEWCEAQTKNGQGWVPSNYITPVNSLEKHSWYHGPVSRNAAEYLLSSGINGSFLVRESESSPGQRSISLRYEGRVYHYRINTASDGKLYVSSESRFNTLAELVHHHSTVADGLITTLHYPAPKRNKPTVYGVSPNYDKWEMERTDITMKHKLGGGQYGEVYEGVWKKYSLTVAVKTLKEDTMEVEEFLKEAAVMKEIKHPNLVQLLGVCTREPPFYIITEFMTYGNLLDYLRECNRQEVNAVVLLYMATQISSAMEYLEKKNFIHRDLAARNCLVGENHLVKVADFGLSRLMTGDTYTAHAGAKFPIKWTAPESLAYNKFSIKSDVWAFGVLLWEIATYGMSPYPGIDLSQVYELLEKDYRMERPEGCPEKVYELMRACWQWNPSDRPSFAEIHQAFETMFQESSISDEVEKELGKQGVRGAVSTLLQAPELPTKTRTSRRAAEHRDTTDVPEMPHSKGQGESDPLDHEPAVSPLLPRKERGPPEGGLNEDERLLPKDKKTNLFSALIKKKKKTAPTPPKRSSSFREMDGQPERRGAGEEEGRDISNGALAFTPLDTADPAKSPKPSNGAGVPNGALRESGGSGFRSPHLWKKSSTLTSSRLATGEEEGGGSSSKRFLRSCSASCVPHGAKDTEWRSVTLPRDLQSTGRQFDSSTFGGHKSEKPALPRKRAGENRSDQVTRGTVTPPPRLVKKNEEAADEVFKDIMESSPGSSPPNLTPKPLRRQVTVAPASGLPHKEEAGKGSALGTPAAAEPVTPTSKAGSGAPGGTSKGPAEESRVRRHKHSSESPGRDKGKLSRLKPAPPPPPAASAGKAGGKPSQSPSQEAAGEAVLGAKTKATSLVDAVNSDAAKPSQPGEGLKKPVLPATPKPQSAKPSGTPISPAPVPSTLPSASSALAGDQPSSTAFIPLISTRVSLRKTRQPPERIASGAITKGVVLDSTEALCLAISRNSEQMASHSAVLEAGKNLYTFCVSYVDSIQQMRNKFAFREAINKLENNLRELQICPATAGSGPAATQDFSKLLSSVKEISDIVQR
pIC50: −log10 of the molar value.
measured_metric: pIC50

Report measured pIC50; entry is CN1CCN(C[C@@H](NC(=O)C[C@H]2CNC(=O)c3cc(-c4cccc(Cl)c4)cn32)C2CCCCC2)CC1
< 5.00

* * *

biological target: MAP kinase-activated protein kinase 2 (Homo sapiens); experiment: Inhibition of MAPKAPK2 (unknown origin)
measured_metric: IC50

Report measured IC50; entry is CN1CCN(C[C@@H](NC(=O)C[C@H]2CNC(=O)c3cc(-c4cccc(Cl)c4)cn32)C2CCCCC2)CC1
> 10 µM

* * *

experiment: Cytotoxicity against human KMS11 cells after 72 hrs by CellTitre-Glo assay; assay type: functional, cell-based; settings: KMS-11, 72 h
measured_metric: IC50 (µM)
Supply the numeric figure in µM, leaving out any unit text.

Report measured IC50; entry is CN1CCN(C[C@@H](NC(=O)C[C@H]2CNC(=O)c3cc(-c4cccc(Cl)c4)cn32)C2CCCCC2)CC1
7.13

* * *

experiment: Cytotoxicity against mouse BA/F3 cells overexpressing PIM1 after 72 hrs by CellTitre-Glo assay; assay type: functional, cell-based; settings: BaF3, 72 h
measured_metric: IC50 (nM)
Supply the numeric figure in nM, leaving out any unit text.

{"compound": "O=C(CC1CNC(=O)c2cc(-c3ccc(F)c(F)c3)cn21)NCC1CCCCC1 (racemic)", "experimental_result": 1270}
{"compound": "CN1CCN(C[C@@H](NC(=O)C[C@H]2CNC(=O)c3cc(-c4ccc(F)c(F)c4)cn32)C2CCCCC2)CC1", "experimental_result": 156}
{"compound": "O=C(CC1CNC(=O)c2cc(-c3ccc(F)c(F)c3)cn21)NCc1ccco1 (racemic)", "experimental_result": 3640}

Report measured IC50; entry is O=C(CC1CNC(=O)c2cc(-c3cccc(Cl)c3)cn21)NCc1ccco1 (racemic)
2430

* * *

Target: Serine/threonine-protein kinase Chk1 (Homo sapiens, UniProt O14757)
Sequence (O14757 whole entry): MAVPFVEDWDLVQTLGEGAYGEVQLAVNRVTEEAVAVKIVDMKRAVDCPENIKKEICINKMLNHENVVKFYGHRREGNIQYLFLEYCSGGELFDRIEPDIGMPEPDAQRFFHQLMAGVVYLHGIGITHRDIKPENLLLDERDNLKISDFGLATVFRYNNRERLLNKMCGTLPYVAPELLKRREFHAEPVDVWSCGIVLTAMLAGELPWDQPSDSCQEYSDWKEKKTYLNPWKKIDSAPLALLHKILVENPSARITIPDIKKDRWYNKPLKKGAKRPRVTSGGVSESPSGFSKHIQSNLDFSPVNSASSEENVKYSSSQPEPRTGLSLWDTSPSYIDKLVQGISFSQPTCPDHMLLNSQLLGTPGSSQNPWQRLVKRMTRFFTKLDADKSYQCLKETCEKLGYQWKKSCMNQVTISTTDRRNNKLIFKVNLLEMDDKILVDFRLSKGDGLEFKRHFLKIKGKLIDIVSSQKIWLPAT
measured_metric: IC50

Report measured IC50; entry is CN1CCN(C[C@@H](NC(=O)C[C@H]2CNC(=O)c3cc(-c4cccc(Cl)c4)cn32)C2CCCCC2)CC1
> 10 µM

* * *

assay: Intrinsic clearance in human liver microsomes after 5 mins by LC-MS/MS analysis; assay type: ADME; conditions: read-out: CLH
measured_metric: log10(CLint scaled) (log10 of the value in mL/min/kg)
// stored as log10 of CLint scaled expressed in mL/min/kg

Take a look at these entries with their results.
{"compound": "O=C(CC1CNC(=O)c2cc(-c3ccnc(Cl)n3)cn21)NCC1CCCCC1 (racemic)", "experimental_result": 2.29}
{"compound": "O=C(CC1CNC(=O)c2cc(-c3ccccc3F)cn21)NCC1CCCCC1 (racemic)", "experimental_result": 2.60}
{"compound": "O=C(CC1CNC(=O)c2cc(-c3ccc(F)c(F)c3)cn21)NCC1CCCCC1 (racemic)", "experimental_result": 2.60}
{"compound": "O=C(C[C@H]1CNC(=O)c2cc(-c3cccc(F)c3)cn21)N[C@H](CO)Cc1ccccc1", "experimental_result": 1.94}
{"compound": "NC[C@@H](NC(=O)C[C@H]1CNC(=O)c2cc(-c3ccnc(F)c3)cn21)c1ccccc1", "experimental_result": 0.81}

Report measured log10(CLint scaled); entry is NC[C@@H](NC(=O)C[C@H]1CNC(=O)c2cc(-c3cccc(F)c3)cn21)C1CCCCC1
1.00

Report measured log10(CLint scaled); entry is O=C(CC1CNC(=O)c2cc(-c3cccc(Cl)c3)cn21)NCc1ccco1 (racemic)
1.99

* * *

biological target: Hepatocyte growth factor receptor (Homo sapiens, UniProt P08581)
Sequence (P08581 whole entry): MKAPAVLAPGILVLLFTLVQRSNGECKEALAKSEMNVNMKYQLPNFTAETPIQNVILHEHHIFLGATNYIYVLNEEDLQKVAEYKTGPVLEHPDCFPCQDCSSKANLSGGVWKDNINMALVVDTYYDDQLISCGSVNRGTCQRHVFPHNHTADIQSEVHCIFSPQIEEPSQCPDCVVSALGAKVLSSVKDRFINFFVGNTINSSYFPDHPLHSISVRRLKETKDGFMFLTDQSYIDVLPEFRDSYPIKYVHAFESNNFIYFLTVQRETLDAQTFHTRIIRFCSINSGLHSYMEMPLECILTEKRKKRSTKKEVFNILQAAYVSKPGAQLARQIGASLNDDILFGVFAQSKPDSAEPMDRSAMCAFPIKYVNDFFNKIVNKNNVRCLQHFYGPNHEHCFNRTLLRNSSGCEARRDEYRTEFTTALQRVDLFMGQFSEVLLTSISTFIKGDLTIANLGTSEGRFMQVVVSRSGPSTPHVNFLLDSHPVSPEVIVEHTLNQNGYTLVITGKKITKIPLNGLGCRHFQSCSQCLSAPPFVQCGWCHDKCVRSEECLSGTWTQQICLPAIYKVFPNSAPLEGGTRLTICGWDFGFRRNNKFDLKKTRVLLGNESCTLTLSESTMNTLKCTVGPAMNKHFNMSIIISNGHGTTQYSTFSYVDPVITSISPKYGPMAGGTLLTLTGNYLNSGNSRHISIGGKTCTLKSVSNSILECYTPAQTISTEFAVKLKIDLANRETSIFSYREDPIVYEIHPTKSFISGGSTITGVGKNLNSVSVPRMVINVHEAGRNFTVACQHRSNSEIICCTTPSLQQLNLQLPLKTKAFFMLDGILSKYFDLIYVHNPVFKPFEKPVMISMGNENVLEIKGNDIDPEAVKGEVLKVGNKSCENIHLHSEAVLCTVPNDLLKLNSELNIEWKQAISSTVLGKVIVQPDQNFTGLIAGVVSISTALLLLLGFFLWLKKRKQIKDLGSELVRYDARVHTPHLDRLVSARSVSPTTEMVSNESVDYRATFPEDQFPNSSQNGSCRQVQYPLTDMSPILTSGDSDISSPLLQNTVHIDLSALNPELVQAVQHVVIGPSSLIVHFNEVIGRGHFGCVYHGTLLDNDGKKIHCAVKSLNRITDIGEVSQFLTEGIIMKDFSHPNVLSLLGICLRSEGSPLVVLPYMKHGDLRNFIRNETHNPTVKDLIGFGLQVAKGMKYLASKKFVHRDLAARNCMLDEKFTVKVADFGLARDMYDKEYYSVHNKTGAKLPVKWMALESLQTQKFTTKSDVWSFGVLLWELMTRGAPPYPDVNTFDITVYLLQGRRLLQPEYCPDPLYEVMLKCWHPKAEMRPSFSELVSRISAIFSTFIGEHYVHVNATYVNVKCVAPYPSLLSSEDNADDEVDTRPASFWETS
pIC50: −log10 of the molar value.
measured_metric: pIC50

Report measured pIC50; entry is CN1CCN(C[C@@H](NC(=O)C[C@H]2CNC(=O)c3cc(-c4cccc(Cl)c4)cn32)C2CCCCC2)CC1
< 5.00

* * *

experiment: Apparent permeability from apical to basolateral side in human Caco2 cells after 120 mins by LC-MS/MS analysis; conditions: Caco-2
measured_metric: Papp A→B at 2 h (×10⁻⁶ cm/s)
Supply the numeric figure in ×10⁻⁶ cm/s, leaving out any unit text.

{"compound": "CN(C)C1CCN(C[C@@H](NC(=O)C[C@H]2CNC(=O)c3cc(-c4cccc(Cl)c4)cn32)C2CCCCC2)CC1", "measured_metric": "Papp A→B at 2 h", "units_symbol": "×10⁻⁶ cm/s", "experimental_result": 1.01}

Report measured Papp A→B at 2 h; entry is O=C(CC1CNC(=O)c2cc(-c3cccc(Cl)c3)cn21)NCc1ccco1 (racemic)
33.1

Report measured Papp A→B at 2 h; entry is O=C(CC1CNC(=O)c2cc(-c3ccc(F)c(F)c3)cn21)NCC1CCCCC1 (racemic)
11.8

Report measured Papp A→B at 2 h; entry is O=C(C[C@H]1CNC(=O)c2cc(-c3cccc(F)c3)cn21)N[C@H](CO)c1ccccc1
2.7

Report measured Papp A→B at 2 h; entry is NC[C@@H](NC(=O)C[C@H]1CNC(=O)c2cc(-c3ccnc(F)c3)cn21)c1ccccc1
0.9

* * *

assay: Plasma protein binding in human; assay type: ADME, cell-free; conditions: read-out: PPB (converted)
measured_metric: fraction unbound
I'd appreciate a reply containing only the number, no unit.

Report measured fraction unbound; entry is CN1CCN(C[C@@H](NC(=O)C[C@H]2CNC(=O)c3cc(-c4cccc(Cl)c4)cn32)C2CCCCC2)CC1
0.03

* * *

target: UniProt:P00533
Sequence (P00533 whole entry): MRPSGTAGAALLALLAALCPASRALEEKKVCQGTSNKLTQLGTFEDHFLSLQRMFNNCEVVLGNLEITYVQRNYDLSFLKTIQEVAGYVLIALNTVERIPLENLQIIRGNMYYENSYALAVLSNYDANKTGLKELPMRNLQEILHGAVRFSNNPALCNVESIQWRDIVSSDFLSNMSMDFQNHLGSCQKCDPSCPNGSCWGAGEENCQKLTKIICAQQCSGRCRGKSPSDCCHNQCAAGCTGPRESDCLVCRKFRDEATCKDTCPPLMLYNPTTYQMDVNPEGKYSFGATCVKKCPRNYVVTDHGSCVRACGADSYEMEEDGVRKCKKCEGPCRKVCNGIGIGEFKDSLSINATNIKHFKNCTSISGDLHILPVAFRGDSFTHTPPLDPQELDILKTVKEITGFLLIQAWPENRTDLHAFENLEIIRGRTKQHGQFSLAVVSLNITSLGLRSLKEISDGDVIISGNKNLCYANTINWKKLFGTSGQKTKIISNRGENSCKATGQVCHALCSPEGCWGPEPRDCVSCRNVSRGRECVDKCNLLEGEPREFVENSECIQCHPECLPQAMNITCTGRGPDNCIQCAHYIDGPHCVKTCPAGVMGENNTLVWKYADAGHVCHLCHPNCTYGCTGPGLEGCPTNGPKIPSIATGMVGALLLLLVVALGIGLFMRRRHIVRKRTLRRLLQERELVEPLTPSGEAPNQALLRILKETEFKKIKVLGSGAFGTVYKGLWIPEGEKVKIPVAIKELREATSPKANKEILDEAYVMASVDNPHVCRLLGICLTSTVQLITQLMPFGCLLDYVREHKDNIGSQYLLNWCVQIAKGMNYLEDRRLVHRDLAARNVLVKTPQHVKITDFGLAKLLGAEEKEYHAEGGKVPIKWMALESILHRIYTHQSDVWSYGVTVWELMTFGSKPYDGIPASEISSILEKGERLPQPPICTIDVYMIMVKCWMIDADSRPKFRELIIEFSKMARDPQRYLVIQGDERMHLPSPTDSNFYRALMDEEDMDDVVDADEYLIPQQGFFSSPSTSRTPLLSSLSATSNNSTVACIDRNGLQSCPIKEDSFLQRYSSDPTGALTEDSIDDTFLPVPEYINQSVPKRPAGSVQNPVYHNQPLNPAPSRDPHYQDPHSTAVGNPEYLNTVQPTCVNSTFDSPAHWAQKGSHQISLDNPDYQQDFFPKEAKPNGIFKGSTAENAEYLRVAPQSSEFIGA
measured_metric: IC50

Under UniProt:P00533: report IC50 of CN1CCN(C[C@@H](NC(=O)C[C@H]2CNC(=O)c3cc(-c4cccc(Cl)c4)cn32)C2CCCCC2)CC1 .
> 10 µM

* * *

molecular target: Insulin receptor (Homo sapiens, UniProt P06213)
Sequence (P06213 28-758 limits assumed): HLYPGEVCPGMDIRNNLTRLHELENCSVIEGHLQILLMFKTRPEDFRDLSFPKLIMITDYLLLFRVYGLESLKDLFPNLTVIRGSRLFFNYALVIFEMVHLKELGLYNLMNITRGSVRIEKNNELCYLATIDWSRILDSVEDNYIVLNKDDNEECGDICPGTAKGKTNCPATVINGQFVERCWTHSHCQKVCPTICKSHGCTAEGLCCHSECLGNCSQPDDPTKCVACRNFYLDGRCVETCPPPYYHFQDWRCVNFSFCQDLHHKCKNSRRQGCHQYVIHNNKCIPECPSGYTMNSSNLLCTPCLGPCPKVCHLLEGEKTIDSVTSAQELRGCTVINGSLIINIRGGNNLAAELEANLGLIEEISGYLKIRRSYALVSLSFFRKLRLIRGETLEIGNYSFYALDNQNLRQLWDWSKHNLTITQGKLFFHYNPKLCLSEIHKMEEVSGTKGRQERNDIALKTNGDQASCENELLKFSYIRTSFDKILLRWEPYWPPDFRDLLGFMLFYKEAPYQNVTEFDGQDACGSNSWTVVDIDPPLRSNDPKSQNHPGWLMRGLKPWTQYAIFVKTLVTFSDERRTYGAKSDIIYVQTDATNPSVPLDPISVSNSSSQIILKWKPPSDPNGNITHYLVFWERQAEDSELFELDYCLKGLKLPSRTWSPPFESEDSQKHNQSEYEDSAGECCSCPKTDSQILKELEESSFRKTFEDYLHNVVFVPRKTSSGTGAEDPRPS
Sequence (P06213 763-1382 limits assumed): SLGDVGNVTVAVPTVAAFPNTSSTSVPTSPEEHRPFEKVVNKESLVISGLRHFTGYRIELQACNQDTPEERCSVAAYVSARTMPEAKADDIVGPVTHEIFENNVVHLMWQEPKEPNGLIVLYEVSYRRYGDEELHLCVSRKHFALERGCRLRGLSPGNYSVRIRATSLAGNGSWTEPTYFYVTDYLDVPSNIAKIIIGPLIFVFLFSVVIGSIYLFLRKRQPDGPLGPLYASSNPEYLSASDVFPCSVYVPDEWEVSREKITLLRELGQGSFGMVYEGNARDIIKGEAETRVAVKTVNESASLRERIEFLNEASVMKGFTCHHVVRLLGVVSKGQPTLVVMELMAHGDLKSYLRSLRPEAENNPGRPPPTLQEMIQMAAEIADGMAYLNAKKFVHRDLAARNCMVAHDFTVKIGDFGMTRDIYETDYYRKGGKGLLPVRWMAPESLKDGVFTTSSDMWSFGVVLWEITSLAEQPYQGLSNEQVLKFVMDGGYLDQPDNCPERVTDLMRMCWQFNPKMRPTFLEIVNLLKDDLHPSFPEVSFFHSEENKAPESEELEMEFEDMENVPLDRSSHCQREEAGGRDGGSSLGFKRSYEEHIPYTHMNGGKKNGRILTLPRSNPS
measured_metric: IC50

Under Insulin receptor (Homo sapiens, UniProt P06213): report IC50 of CN1CCN(C[C@@H](NC(=O)C[C@H]2CNC(=O)c3cc(-c4cccc(Cl)c4)cn32)C2CCCCC2)CC1 .
> 10 µM

* * *

Recorded Papp A→B at 2 h values for a group of molecules are listed next.
experiment: Apparent permeability from apical to basolateral side in human Caco2 cells after 120 mins by LC-MS/MS analysis; conditions: Caco-2
Supply the numeric figure in ×10⁻⁶ cm/s, leaving out any unit text.

Take a look at these entries with their results.
{"molecule": "O=C(CC1CNC(=O)c2cc(-c3ccccc3F)cn21)NCC1CCCCC1 (racemic)", "experimental_result": 11.9}
{"molecule": "NC[C@@H](NC(=O)C[C@H]1CNC(=O)c2cc(-c3cccc(F)c3)cn21)c1ccccc1", "experimental_result": 0.6}
{"molecule": "O=C(CC1CNC(=O)c2cc(-c3cccc(F)c3)cn21)NCC1CCCCC1 (racemic)", "experimental_result": 11.2}
{"molecule": "O=C(C[C@H]1CNC(=O)c2cc(-c3cccc(F)c3)cn21)N[C@H](CO)Cc1ccccc1", "experimental_result": 1.3}

Report measured Papp A→B at 2 h; entry is O=C(C[C@H]1CNC(=O)c2cc(-c3cccc(F)c3)cn21)N[C@H](CO)C1CCCCC1
1.1

Report measured Papp A→B at 2 h; entry is CN1CCN(C[C@@H](NC(=O)C[C@H]2CNC(=O)c3cc(-c4ccnc(F)c4)cn32)C2CCCCC2)CC1
0.33

Report measured Papp A→B at 2 h; entry is O=C(CC1CNC(=O)c2cc(-c3ccnc(Cl)n3)cn21)NCC1CCCCC1 (racemic)
0.9

Report measured Papp A→B at 2 h; entry is CN1CCN(C[C@@H](NC(=O)C[C@H]2CNC(=O)c3cc(-c4cccc(Cl)c4)cn32)C2CCCCC2)CC1
8.4

Report measured Papp A→B at 2 h; entry is NC[C@@H](NC(=O)C[C@H]1CNC(=O)c2cc(-c3cccc(F)c3)cn21)C1CCCCC1
0.8
